- System: NCI-H1651
- Test Name: relative viability (nuclei count vs DMSO), 5 days (fraction); higher = more cells survive
- Assay Context: first compound 0.06325 µM
Criterion: relative viability strictly under 0.3. Met: condition met. Not met: condition not met.

Consider CCNC(=O)c1noc(-c2cc(C(C)C)c(O)cc2O)c1-c1ccc(CN2CCOCC2)cc1 [Luminespib] + Nc1ncn([C@H]2C[C@H](O)[C@@H](CO)O2)c(=O)n1 [Decitabine] (partner 2 µM) . Does its relative viability lie strictly below 0.3?
condition not met

Field: below-cutoff. Rule: recorded relative viability strictly less than 0.3. Subject: CCNC(=O)c1noc(-c2cc(C(C)C)c(O)cc2O)c1-c1ccc(CN2CCOCC2)cc1 [Luminespib] + CC(=O)Nc1cccc(-n2c(=O)n(C3CC3)c(=O)c3c(Nc4ccc(I)cc4F)n(C)c(=O)c(C)c32)c1 [Trametinib] (partner 0.02 µM)
condition not met

Is relative viability strictly under 0.3 for the entry CCNC(=O)c1noc(-c2cc(C(C)C)c(O)cc2O)c1-c1ccc(CN2CCOCC2)cc1 [Luminespib] + Nc1nc2[nH]cc(CCc3ccc(C(=O)N[C@@H](CCC(=O)O)C(=O)O)cc3)c2c(=O)[nH]1 [Pemetrexed] (partner 0.2 µM) ?
condition not met

Take the compound CCNC(=O)c1noc(-c2cc(C(C)C)c(O)cc2O)c1-c1ccc(CN2CCOCC2)cc1 [Luminespib] + COc1cccc2cc(-c3nc([C@H]4CC[C@H](C(=O)O)CC4)n4ncnc(N)c34)[nH]c12 [OSI-027] (partner 0.5 µM) and say whether its relative viability is less than 0.3.
condition not met

Field: below-cutoff. Rule: recorded relative viability strictly less than 0.3. Subject: CCNC(=O)c1noc(-c2cc(C(C)C)c(O)cc2O)c1-c1ccc(CN2CCOCC2)cc1 [Luminespib] + CC1(C)CCC(c2ccc(Cl)cc2)=C(CN2CCN(c3ccc(C(=O)NS(=O)(=O)c4ccc(N[C@H](CCN5CCOCC5)CSc5ccccc5)c(S(=O)(=O)C(F)(F)F)c4)cc3)CC2)C1 [Navitoclax] (partner 0.5 µM)
condition met

Is relative viability strictly under 0.3 for the entry CCNC(=O)c1noc(-c2cc(C(C)C)c(O)cc2O)c1-c1ccc(CN2CCOCC2)cc1 [Luminespib] + Cc1cc(Nc2cc(N3CCN(C)CC3)nc(Sc3ccc(NC(=O)C4CC4)cc3)n2)n[nH]1 [Tozasertib] (partner 0.1 µM) ?
condition not met
